Test: in vitro
Format: cell-based, mouse
Details: mouse
measurement_type: mortality at 24 h, 5 μM (%)
I only need the number, in %, no unit after it.

The value of mortality at 24 h, 5 μM measured for the molecule O=c1[nH]cc(F)c(=O)[nH]1 [5-FU, 5-fluorouracil] turned out to be 27

----------
Target: StDHOase (Salmonella typhimurium)
Sequence (P06204 whole entry): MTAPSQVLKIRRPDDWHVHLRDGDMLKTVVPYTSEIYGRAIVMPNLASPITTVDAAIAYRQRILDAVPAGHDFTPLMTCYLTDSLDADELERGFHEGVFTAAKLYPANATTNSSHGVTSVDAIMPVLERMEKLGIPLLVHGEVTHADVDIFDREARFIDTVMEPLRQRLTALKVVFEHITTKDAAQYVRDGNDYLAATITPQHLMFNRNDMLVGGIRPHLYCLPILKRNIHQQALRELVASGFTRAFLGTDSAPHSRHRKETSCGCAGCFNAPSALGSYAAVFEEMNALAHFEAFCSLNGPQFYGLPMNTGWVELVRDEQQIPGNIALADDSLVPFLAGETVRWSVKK
measurement_type: pKd
Reminder that pKd means the negative base-10 logarithm of the concentration expressed in mol/L.

Log: StDHOase (Salmonella typhimurium), compound `CC1=CC(=O)c2c(O)cccc2C1=O` , pKd = 4.10

----------
// pKd collected for ScDHOase (Saccharomyces cerevisiae)
Reminder that pKd means the negative base-10 logarithm of the concentration expressed in mol/L.

• CC1=CC(=O)c2c(O)cccc2C1=O [PLU, plumbagin] = 4.19

The value of pKd measured for the molecule O=C(O)c1cc(=O)[nH]c(=O)[nH]1 [orotic acid] turned out to be 3.70

----------
Consider the following compounds and their measured decrease of the activity of huDHOase readings.
Biological target: huDHOase (Homo sapiens)
Construct: huDHOase1456-1846-NdeI-N; made in house; host or cells: E. coli BL21(DE3)
Assay: rapid spectrophotometric DHOase enzyme assay (hydrolysis of DHO)
Assay type: biochemical
Conditions: 200 μM compound in the standard assay
I only need the number, in %, no unit after it.

* CC1=CC(=O)c2c(O)cccc2C1=O | 30

The value of decrease of the activity of huDHOase measured for the compound O=C(O)c1[nH]c(=O)[nH]c(=O)c1F [5-FOA, 5-fluoroorotate] turned out to be 26

The value of decrease of the activity of huDHOase measured for the compound O=C(O)CC(O)C(=O)O (stereo not shown) [malate] turned out to be 6

The value of decrease of the activity of huDHOase measured for the compound N=C1NC(=O)CC(C(=O)O)S1 (stereo not shown) turned out to be 12

----------
Experiment: in vitro
Format: cell-based, mouse
Details: mouse; PLU 2 μM, 4T1 cells; read-out: Death rate (cell mortality)
Description: The 4T1 cells (1 × 10^4) were incubated with PLU in a 100 μL volume. After 24 h, the anticancer potentiality was estimated.
measurement_type: mortality at 24 h, 2 μM (%)
I only need the number, in %, no unit after it.

The value of mortality at 24 h, 2 μM measured for the compound `CC1=CC(=O)c2c(O)cccc2C1=O` turned out to be 8

----------
Molecular target: huDHOase (Homo sapiens, UniProt P27708)
Construct: huDHOase1456-1846-NdeI-N; made in house; host or cells: E. coli BL21(DE3)
Sequence (P27708 1456-1846): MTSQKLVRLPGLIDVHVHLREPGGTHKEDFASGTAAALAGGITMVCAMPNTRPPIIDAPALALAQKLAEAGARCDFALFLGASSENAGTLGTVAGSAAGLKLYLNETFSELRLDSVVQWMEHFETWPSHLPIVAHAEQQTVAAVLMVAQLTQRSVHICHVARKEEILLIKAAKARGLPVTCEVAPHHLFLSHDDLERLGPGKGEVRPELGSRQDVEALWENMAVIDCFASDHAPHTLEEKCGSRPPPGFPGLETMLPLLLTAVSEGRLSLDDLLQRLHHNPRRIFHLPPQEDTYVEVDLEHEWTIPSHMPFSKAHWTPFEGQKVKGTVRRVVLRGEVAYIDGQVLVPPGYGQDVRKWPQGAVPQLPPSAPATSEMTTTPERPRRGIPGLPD
Experiment: rapid spectrophotometric DHOase enzyme assay (hydrolysis of DHO)
Assay type: biochemical
Conditions: 200 μM for the compounds of Figure 2; AZT concentration not given
measurement_type: inhibition of huDHOase (in words)

• O=C1CCC(C(=O)O)NC(=O)N1 (centres unmarked) [DDCA] = did not inhibit huDHOase
• O=C(O)CC1NC(=O)NC1=O (centres unmarked) [5-HAA, 5-hydantoinacetic acid] = did not inhibit huDHOase

----------
Target: ScDHOase (Saccharomyces cerevisiae)
Construct: made in house; host or cells: E. coli BL21(DE3)
Sequence (P20051 whole entry): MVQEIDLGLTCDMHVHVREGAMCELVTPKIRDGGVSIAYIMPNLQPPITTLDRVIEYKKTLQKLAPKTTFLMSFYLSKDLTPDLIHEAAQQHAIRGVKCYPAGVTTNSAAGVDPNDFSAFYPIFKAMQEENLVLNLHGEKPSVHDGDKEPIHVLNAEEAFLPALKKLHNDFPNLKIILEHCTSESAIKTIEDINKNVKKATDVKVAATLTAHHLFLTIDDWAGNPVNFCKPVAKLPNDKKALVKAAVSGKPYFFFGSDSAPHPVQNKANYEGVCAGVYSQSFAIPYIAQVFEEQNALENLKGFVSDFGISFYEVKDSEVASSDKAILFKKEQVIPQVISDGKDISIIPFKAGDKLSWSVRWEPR
Experiment: fluorescence quenching binding assay
Conditions: 200 μM compound; 324 nm, excitation 280 nm
Consider the following compounds and their measured quenching of the intrinsic fluorescence of ScDHOase readings.
I only need the number, in %, no unit after it.

- CC(=O)NO [Acetohydroxamate]: 2.5
- CC(=O)NCCc1cnc[nH]1: 2.8
- O=C1CCC(C(=O)O)NC(=O)N1 (stereo not drawn): 3.0
- CC1=CC(=O)c2c(O)cccc2C1=O: 87.7
- CSc1nnn[nH]1: 2.3
- O=C(O)CC1NC(=O)NC1=O (stereo not drawn): 1.5
- N=C1NC(=O)CC(C(=O)O)S1 (stereo not drawn): 15.6
- O=C(O)c1cc(=O)[nH]c(=O)[nH]1: 65.9
- Nc1n[nH]c(N)n1: 3.9
- O=C(O)c1[nH]c(=O)[nH]c(=O)c1F [5-FOA, 5-fluoroorotate]: 78.2

Log: ScDHOase (Saccharomyces cerevisiae), compound O=C(O)CC(O)C(=O)O (stereo not drawn) [malate] , quenching of the intrinsic fluorescence of ScDHOase = 10.9

Log: ScDHOase (Saccharomyces cerevisiae), compound `Nc1nc[nH]n1` , quenching of the intrinsic fluorescence of ScDHOase = 2.8
